- TEST SYSTEM: T1, rat B7H3-His (rat, UniProt Q7TPB4 29-244, limits assumed)
- T1 construct: not shown: His tag
- T1 sequence (looked up): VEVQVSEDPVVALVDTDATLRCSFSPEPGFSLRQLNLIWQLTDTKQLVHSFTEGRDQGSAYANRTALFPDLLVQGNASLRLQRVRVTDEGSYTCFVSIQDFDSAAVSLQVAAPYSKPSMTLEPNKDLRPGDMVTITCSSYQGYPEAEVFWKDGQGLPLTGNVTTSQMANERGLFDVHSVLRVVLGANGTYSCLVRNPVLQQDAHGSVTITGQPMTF
- EXPERIMENT NOTES: phage ELISA, cross-species
OUTCOME MEASURE: ELISA signal
The answer should be a number; do not append a unit.

# input Dear colleague, please send me the reported ELISA signal for RWG4 (VHH, Camel VHH; tag not described; also called camel antibody RWG4) VHH: QVQLVQSGGGLVQPGGSLRLSCAASGFTFSVYWFYWVRQAPRQGLEWVSTIASNGSTYYSDSVKGRFTISRDNAKNTVYLQMNSLKPEDTAVYYCVSDPDYYSDYERAYKFWAQGTQVTVSS when you can.
# output 0.292

Continue with the binder presented below.
# input Dear colleague, please send me the reported ELISA signal for RWD9 (VHH, Camel VHH; tag not described; also called camel antibody RWD9) VHH: EVQLVESGGGLVQPGGSLSVSCAASGFTFSVYWFYWVRQAPRQGLEWVSTIASNGSTYYSDSVKGRFTISRDNAKNTVYLQMNSLKPEDTAVYYCVSDPDYYSDYERAYKFWAQGTQVTVSS when you can.
# output 0.778

Source: patent US20220380471A1
